Test system: T. gondii RH strain (type I) tachyzoites
Assay: In vitro growth inhibition of red fluorescent tachyzoites, RH strain
Assay type: cell-based
Conditions: Toxoplasma gondii, tachyzoite growth
ENDPOINT: EC50 (nM)
Field: numeric (nM). Do not append units.

Request: Give the reported EC50 for CCc1nc(N)nc(N)c1-c1ccc(Cl)cc1 [Pyrimethamine] (system: T. gondii RH strain (type I) tachyzoites).
Response: 383

###

System: T. gondii Pru strain (type II) tachyzoites
Test: In vitro growth inhibition of red fluorescent tachyzoites, Pru strain
Type: cell-based, Toxoplasma gondii
Settings: Toxoplasma gondii, tachyzoite growth
ENDPOINT: pEC50
# reply with the number alone; pEC50 is -log10 of concentration in mol/L

Request: Requested read-out: pEC50. Entry: `CCc1nc(N)nc(N)c1-c1ccc(Cl)cc1`
Response: 7.36
